system-name: human CD33 P203A (human, UniProt P20138 18-364)
Sequence (P20138 18-364 P203A limits assumed): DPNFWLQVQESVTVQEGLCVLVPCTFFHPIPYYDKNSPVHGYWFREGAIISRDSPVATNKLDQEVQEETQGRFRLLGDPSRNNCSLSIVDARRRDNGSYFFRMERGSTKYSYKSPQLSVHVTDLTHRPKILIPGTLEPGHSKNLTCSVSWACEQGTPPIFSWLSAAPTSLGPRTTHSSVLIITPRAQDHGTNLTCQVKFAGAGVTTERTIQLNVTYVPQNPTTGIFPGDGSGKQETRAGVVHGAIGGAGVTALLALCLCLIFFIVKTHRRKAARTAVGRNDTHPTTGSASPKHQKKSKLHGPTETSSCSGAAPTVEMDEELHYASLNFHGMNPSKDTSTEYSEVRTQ
test-description: alanine scan, flow cytometry, HEK293-T;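 also: antibody binding to each alanine-substituted CD33 mutant expressed transiently in HEK293-T, read as fluorescence minus background, mean of duplicates, relative to wild-type CD33 set as 100%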
endpoint: Mean % WT Binding (%)

binder	recorded-value
Refmab #1 (antibody, V domains shown, In the alanine scan antibodies were used as IgG or Fab; also called hP67.6) VH: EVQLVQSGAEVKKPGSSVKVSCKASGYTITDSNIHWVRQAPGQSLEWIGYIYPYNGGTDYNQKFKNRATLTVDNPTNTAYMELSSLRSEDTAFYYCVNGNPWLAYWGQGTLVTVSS VL: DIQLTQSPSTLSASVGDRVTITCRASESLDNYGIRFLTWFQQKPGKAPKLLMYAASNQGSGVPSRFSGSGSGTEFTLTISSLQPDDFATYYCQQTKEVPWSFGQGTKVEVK	103

Source listed as patent US20260242735A1.
